assay comment: Primary fluorescence-based thiol-reactive (MSTI) qHTS assay for identification of artifact compounds. (AID 1845221);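 further: thiol-reactive compounds lower the probe fluorescence signal; nearly all actives have a fitted effect of over 65% in size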
study conditions: MSTI thiol-reactivity probe, 1 h; series mostly up to 53.8 µM
Results filed as inconclusive are left out. Activity calls are given as the source filed them. The call rests on the fitted dose curve; in most records, active means well fitted inhibition curve with a large enough effect; inconclusive means small, poorly fitted or top-dose-only effect; inactive means no such curve, though single readings can be large or run the other way.
assay metric: outcome

Cc1cnc(-c2cnc(NCCNc3ccc(C#N)cn3)nc2-c2ccc(Cl)cc2Cl)[nH]1 : inactive
COc1cccc(Nc2c(C(N)=O)cnc3c(C)cc(S(=O)(=O)c4cccc(C(=O)N(C)C)c4)cc23)c1 : inactive
CC(C)(O)c1cc2nc(-c3cnc(N)nc3)nc(N3CCOCC3)c2s1 : inactive
Cc1cc(C(=O)N2CCN(c3cccc(Cl)c3)CC2)n(-c2ccccc2)n1 : inactive

Please examine the following record next.
State its outcome for this molecule: CC(C)c1noc(N2CCC(COc3ccc(-c4ccc(S(C)(=O)=O)cc4)nc3)CC2)n1 inactive

###

System: ICS
assay comment: qHTS profiling for inhibitors of Plasmodium falciparum proliferation (AID 504749); further: nearly all actives have a fitted effect of over 60% in size; further: potency means the concentration at half of the fitted maximal effect
study conditions: P. falciparum in erythrocytes, SYBR Green DNA, 72 h; series mostly up to 28.7 µM
Results filed as inconclusive are left out. The source made the active and inactive calls. Calls come from the whole dose curve; as a rule, active = well fitted inhibition curve with a large enough effect; inconclusive = small, poorly fitted or top-dose-only effect; inactive = flat fitted curve, though single readings scatter.
assay metric: Potency

Before answering, review these 5 worked examples.
O=c1[nH]c(=O)n(C2CCCO2)cc1F (stereo unspecified) : inactive
Nc1ccn([C@@H]2CS[C@H](CO)O2)c(=O)n1 : inactive
CC[C@H]1CN2CCc3cc(OC)c(OC)cc3[C@H]2C[C@@H]1C[C@@H]1NCCc2cc(OC)c(OC)cc21 : 178 nM (active)
COC(=O)C1=C(C)NC(C)=C(C(=O)OCCN2CCN(C(c3ccccc3)c3ccccc3)CC2)C1c1cccc([N+](=O)[O-])c1 (stereo unspecified) : 1000 nM (active)
Nc1ccn([C@@H]2O[C@H](CO)[C@H](O)C2(F)F)c(=O)n1 : 3980 nM (active)

Tell me Potency reported for COC(=O)C[C@](O)(CCCC(C)(C)O)C(=O)O[C@@H]1C(OC)=C[C@]23CCCN2CCc2cc4c(cc2[C@H]13)OCO4 15.8 nM (active)

###

measurement target: Phospholipid hydroperoxide glutathione peroxidase GPX4 (Homo sapiens)
assay comment: Primary qHTS Assay for Inhibitors of Recombinant Selenoprotein Glutathione Peroxidase 4 (GPX4) (AID 1845192); further: nearly all actives have a fitted effect of over 65% in size
study conditions: recombinant GPX4, GR-coupled NADPH fluorescence, 15 min; series mostly up to 50 µM
Inconclusive results are not listed. Active and inactive are the calls of the source. Calls come from the whole dose curve; as a rule, active = well fitted inhibition curve with a large enough effect; inconclusive = small, poorly fitted or top-dose-only effect; inactive = flat fitted curve, though single readings scatter.
Pick one: true (1) (active), false (0) (inactive)

Give the logged outcome of this assay for the following molecule: CC1(C)CCC(c2ccc(Cl)cc2)=C(CN2CCN(c3ccc(C(=O)NS(=O)(=O)c4ccc(N[C@H](CCN5CCOCC5)CSc5ccccc5)c(S(=O)(=O)C(F)(F)F)c4)cc3)CC2)C1 true (1)

Just curious, what result did Cc1c(NC(=O)OC[C@@H]2COCCN2)cn2ncnc(Nc3ccc4c(cnn4Cc4cccc(F)c4)c3)c12 get here? false (0)

// param item: Nc1ccccc1NC(=O)c1ccc(CNc2nccc(-c3cccnc3)n2)cc1 ; yields the recorded call false (0)

Can you look up the reported call for NC(=O)Nc1cc(-c2cccc(F)c2)sc1C(=O)N[C@H]1CCCNC1 for me? false (0)

Could you please tell me the result logged for COC(=O)C1=C(C)NC(C)=C(C(=O)OCCN2CCN(C(c3ccccc3)c3ccccc3)CC2)C1c1cccc([N+](=O)[O-])c1 (configuration not stated) in this assay? false (0)

Called result for Cc1cc(Nc2cc(NC(=O)c3c(Cl)cccc3Cl)ccn2)nc(N)n1 false (0)

Which outcome did this test record for the molecule Cc1cnc(-c2cnc(NCCNc3ccc(C#N)cn3)nc2-c2ccc(Cl)cc2Cl)[nH]1 ? false (0)

Call for entry Cc1cn2c(-c3cn[nH]c3)cnc2c(Nc2ccc(C(=O)N3CCNCC3)cc2F)n1 : false (0)

Outcome logged for CN1CCN(c2ccc3nc(-c4c(N)c5c(F)cccc5[nH]c4=O)[nH]c3c2)CC1 in this assay: false (0)

So what was the verdict on O=C(c1cncc(Br)c1)N1CCC(N2CCCC2)CC1 in this test? false (0)

For COc1cc(C(=O)N2CCC(N3CCN(C)CC3)CC2)ccc1Nc1ncc2c(n1)N(C)c1ccccc1C(=O)N2C , which call appears in the assay record? false (0)

Could you please tell me the result logged for Cc1cn(-c2cc(NC(=O)c3ccc(C)c(Nc4nccc(-c5cccnc5)n4)c3)cc(C(F)(F)F)c2)cn1 in this assay? false (0)

Hi team, can someone confirm the assay call for CN(C1CCc2c(c3ccccc3n2CC(=O)O)C1)S(=O)(=O)c1ccc(F)cc1 (configuration not stated) ? false (0)

For this molecule, state the assay outcome: O=c1[nH]c(=O)n(C2CCCO2)cc1F (configuration not stated) false (0)

Recorded test outcome, item CN1CCN(c2cc(C(=O)Nc3ccc4c(c3)-c3c(c(C(N)=O)nn3-c3ccc(F)cc3)CC4)c(Cl)cn2)CC1 false (0)

Check the results log: what was the call for COc1cc2c(Nc3ccc(NC(=O)c4ccccc4)cc3)ncnc2cc1OCCCN1CCOCC1 ? false (0)

Recorded test outcome, item CCCCCCCCCC(=O)N[C@@H](Cc1c[nH]c2ccccc12)C(=O)N[C@H](CC(N)=O)C(=O)N[C@@H](CC(=O)O)C(=O)N[C@@H]1C(=O)NCC(=O)N[C@@H](CCCN)C(=O)N[C@@H](CC(=O)O)C(=O)N[C@H](C)C(=O)N[C@@H](CC(=O)O)C(=O)NCC(=O)N[C@H](CO)C(=O)N[C@@H]([C@@H](C)CC(=O)O)C(=O)N[C@@H](CC(=O)c2ccccc2N)C(=O)O[C@@H]1C false (0)

###

assay comment: qHTS profiling for inhibitors of Plasmodium falciparum (DD2) proliferation (AID 743323)
study conditions: lower = more inhibition; at 28.7 µM (top of the series)
For each record, check the reported activity, percent of control: if it is below 10% write T, else write F.

Say whether its activity, percent of control is strictly beneath 10%. Entry: Cc1[nH]c2ccccc2c1CCNCc1ccc(C=CC(=O)NO)cc1 T

Please determine if CNC(=O)c1cc(Oc2ccc(NC(=O)Nc3cc(C(C)(C)C)nn3-c3ccc4ncccc4c3)c(F)c2)ccn1 is below 10% in terms of activity, percent of control. F

I wonder whether O=C(C=Cc1cccnc1)NCCCCC1CCN(C(=O)c2ccccc2)CC1 has activity, percent of control below 10%. Can you tell? F

API: query returns whether the compound falls strictly under 10% in activity, percent of control. Query: Cc1cnc(Nc2ccc(F)cc2Cl)nc1-c1c[nH]c(C(=O)N[C@H](CO)c2cccc(Cl)c2)c1 F

# strict comparison: is reported activity, percent of control < 10%? input = C1Cc2[nH]nc(-c3nn[nH]n3)c2C1 F

Consider the compound CNc1nccc(-c2cccnc2Oc2cc(C(=O)Nc3cccc(C(F)(F)F)c3)ccc2C)n1 . Is its activity, percent of control strictly less than 10%? F

Consider O=C(Nc1cc(C(F)(F)F)cc(C(F)(F)F)c1)c1cc(Cl)ccc1O . Does its activity, percent of control lie strictly below 10%? T

Is activity, percent of control strictly under 10% for the entry CN1CC[C@@H](c2c(O)cc(O)c3c(=O)cc(-c4ccccc4Cl)oc23)[C@@H](O)C1 ? T

Report whether reported activity, percent of control is lower than 10% (strictly) for CC(C)CC(=O)Nc1n[nH]c2c1CN(C(=O)C1CCN(C)CC1)C2(C)C F

Decide: activity, percent of control of CC(C)c1ccc(Cn2ccc3c4c(N)nc(NC5CC5)nc4ccc32)cc1 strictly below 10%? T

activity, percent of control strictly < 10% for this compound? C[C@@H](Oc1cc(-n2cnc3ccc(CN4CCN(C)CC4)cc32)sc1C(N)=O)c1ccccc1C(F)(F)F T

Please check: activity, percent of control for CC(C)[C@H](C(=O)Nc1ccc(C(=O)NO)cc1)c1ccccc1 , strictly under 10% or not? T

Confirm or reject: activity, percent of control of CC1=C(CO)C(=O)O[C@@H]([C@@H](C)[C@H]2CC[C@H]3[C@@H]4C[C@H]5O[C@]56[C@@H](O)C=CC(=O)[C@]6(C)[C@@H]4CC[C@]23C)C1 lies strictly below 10% T

Consider the compound COc1cc2nccc(Oc3ccc(NC(=O)C4(C(=O)Nc5ccc(F)cc5)CC4)cc3)c2cc1OC . Is its activity, percent of control strictly less than 10%? F

Check if activity, percent of control falls below 10% for Cc1cccc(C=NNc2cc(N3CCOCC3)nc(OCCc3ccccn3)n2)c1 . T

Hello, I'm reviewing records and need to know if activity, percent of control of COc1cc(C(C)C)c2c(c1)S(=O)(=O)N(COc1cc(=O)n3cccc(OCCN4CCCCC4)c3n1)C2=O is below 10%. Could you check? F

Report whether reported activity, percent of control is lower than 10% (strictly) for CC(C)(O)CCc1ccc(OCc2cc(-c3cccc(OC(F)F)c3)c3ncccc3c2)cc1 F

Say whether its activity, percent of control is strictly beneath 10%. Entry: COC(=O)c1ccc2c(C(=Nc3ccc(N(C)C(=O)CN4CCN(C)CC4)cc3)c3ccccc3)c(O)[nH]c2c1 T

Lab note: confirm whether the reported activity, percent of control for this compound is below 10%, equality not counting. compound: C=C1C(=CC=C2CCC[C@]3(C)[C@@H]([C@H](C)C=C[C@H](C)C(C)C)CC[C@@H]23)C[C@@H](O)C[C@@H]1O F
